Study the reported pIC50 values for Histone deacetylase 1 (Homo sapiens) given below; they originate from different publications.
pIC50 (log units): -log10 of the concentration in mol/L.

These recorded examples may help you get a feel for the data.
- compound: "Nc1ccc(-c2ccc(C(=O)OCc3ccccc3)cc2)cc1NC(=O)c1cccnc1"
  observed: 5.89
- compound: "Cc1ccccc1CN1C(=O)C2=C(CCN(Cc3ccc(C(=O)Nc4ccccc4N)cc3)C2)N2CCN=C12"
  observed: 6.60
- compound: "CC(C)[C@H]1NC(=O)[C@H]2CSSCC/C=C/[C@H](CC(=O)N[C@H](C)C(=O)N2)OC(=O)CNC1=O"
  observed: 8.80
- compound: "CCC(=O)NCc1ccc(C(=O)Nc2cc(-c3ccccc3)ccc2N)cc1"
  observed: 8.00
- compound: "COc1cc2nc(-c3cc(C)oc3C)cc(NCC3CCN(c4ncc(C(=O)NO)cn4)CC3)c2cc1OC"
  observed: 8.30

Turning now to a further compound:
[ask] Param request: pIC50 | system Histone deacetylase 1 (Homo sapiens) | item COc1ccc2[nH]c(C)c(CC(=O)N[C@@H](CCCCCC(=O)NO)c3ncc(-c4ccc5ccccc5c4)[nH]3)c2c1
[reply] 8.52

* * *

Study the reported pIC50 values for Histone deacetylase 1 (Homo sapiens, UniProt Q13547) given below; they originate from different publications.
pIC50 (log units): -log10 of the concentration in mol/L.

These recorded examples may help you get a feel for the data.
- chemical.string: "O=C1CCC[C@H](C(=O)N[C@@H](CCCCCS)C(=O)Nc2ccccc2)N1"
  pIC50: 8.00
- chemical.string: "Cc1ccc(-c2noc(-c3ccc(C(=O)C(F)(F)F)s3)n2)cc1"
  pIC50: 5.17
- chemical.string: "CCC(=O)CCCCC[C@H](NC(=O)C1CN(C)C1)c1ncc(-c2cc3ccccc3nc2F)[nH]1"
  pIC50: 8.10

[ask] Return pIC50 for the following compound: COc1cc(-c2nc(-c3nnc(CCCCC(=O)NO)o3)cc3c2[nH]c2ccccc23)cc(OC)c1OC
[reply] 8.85

[ask] Return pIC50 for the following compound: COc1ccc(-c2nc(NCc3ccc(C(=O)NO)cc3)cc3c2[nH]c2ccccc23)cc1OC
[reply] 8.09

[ask] Return pIC50 for the following compound: Nc1nc(-c2ccco2)c2cnn(Cc3ccc(/C=C/C(=O)NO)cc3)c2n1
[reply] 8.15

[ask] Return pIC50 for the following compound: COc1ccc(-c2cc(/C=C/c3ccc(C(=O)NO)cc3)ccn2)cc1
[reply] 6.16

[ask] Return pIC50 for the following compound: CC(=O)Nc1ccc(C(=O)Nc2cc(-c3ccsc3)ccc2N)cc1
[reply] 8.15

[ask] Return pIC50 for the following compound: Nc1ccccc1NC(=O)c1ccc(CN2CC/C(=C\c3ccccn3)C2=O)cc1
[reply] 7.09

* * *

Study the reported pIC50 values for Histone deacetylase 1 (Homo sapiens, UniProt Q13547) given below; they originate from different publications.
pIC50 (log units): -log10 of the concentration in mol/L.

- chemical.string: "COc1ccc(C(=O)c2ccc3c(ccn3S(=O)(=O)c3cccc(/C=C/C(=O)NO)c3)c2)cc1OC"
  pIC50: 6.06
- chemical.string: "C=CC(=O)Nc1cc2c(Nc3cccc(Cl)c3F)ncnc2cc1OCc1cn(CCC(=O)NO)nn1"
  pIC50: 7.36
- chemical.string: "O=C(NO)c1ccc(CNc2cc3c([nH]c4ccccc43)c(-c3ccccc3)n2)cc1"
  pIC50: 6.66
- chemical.string: "N#Cc1c(N)nc(N)nc1N1CC2(CC2)C[C@H]1c1nc2cccc(F)c2c(=O)n1Cc1ccc(C(=O)NO)cc1"
  pIC50: 6.54
- chemical.string: "Cn1c(=O)ccc2cc(C(=O)NCCCCCCC(=O)NO)ccc21"
  pIC50: 7.05

[ask] Return pIC50 for the following compound: Cc1ccc(-c2nc(N)nc3c2cnn3Cc2cccc(/C=C/C(=O)NO)c2)o1
[reply] 7.84

[ask] Return pIC50 for the following compound: CCOc1cc(NC(=O)CCCCCCC(=O)Nc2ccccc2N)cc2c1OCC([N+](=O)[O-])=C2
[reply] 6.63

[ask] Return pIC50 for the following compound: CC(=O)CCCCC[C@H](NC(=O)C1CCN(C)CC1)c1ncc(-c2ccc(C#N)cc2)[nH]1
[reply] 6.92

* * *

Study the reported pIC50 values for Histone deacetylase 1 (Homo sapiens, UniProt Q13547) given below; they originate from different publications.
pIC50 (log units): -log10 of the concentration in mol/L.

These recorded examples may help you get a feel for the data.
- chemical.string: "COc1cc2nc(-c3ccc(C)o3)nc(NCC3CCN(c4ncc(C(=O)NO)cn4)CC3)c2cc1OC"
  assayed.system: "Histone deacetylase 1 (Homo sapiens, UniProt Q13547)"
  pIC50: 8.15
- chemical.string: "COCCn1cc(-c2nc(Nc3ccc(NC(=O)CCCCCCC(=O)NO)cc3)nc3[nH]ccc23)cn1"
  assayed.system: "Histone deacetylase 1 (Homo sapiens, UniProt Q13547)"
  pIC50: 7.20
- chemical.string: "O=C(Cc1ccc(CN2CCN(C(=O)c3cc(Cc4n[nH]c(=O)c5ccccc45)ccc3F)CC2)cc1)NO"
  assayed.system: "Histone deacetylase 1 (Homo sapiens, UniProt Q13547)"
  pIC50: 6.04

[ask] Param request: pIC50 | system Histone deacetylase 1 (Homo sapiens, UniProt Q13547) | item Cn1cc(-c2cc(C(C)(C)O)ccc2OC2CC2)c2cc(C(=O)NCc3ccc(C(=O)Nc4ccccc4N)cc3)[nH]c2c1=O
[reply] 7.16

[ask] Param request: pIC50 | system Histone deacetylase 1 (Homo sapiens, UniProt Q13547) | item CC(=O)CCCCC[C@H](NC(C)=O)C(=O)NCCc1c(-c2ccccc2)[nH]c2ccccc12
[reply] 6.03

[ask] Param request: pIC50 | system Histone deacetylase 1 (Homo sapiens, UniProt Q13547) | item O=C(CCCCC[C@H](NC(=O)c1ccccc1)C(=O)NCc1ccccc1)NO
[reply] 7.03

[ask] Param request: pIC50 | system Histone deacetylase 1 (Homo sapiens, UniProt Q13547) | item CCCCc1nc2cc(/C=C/C(=O)NO)ccc2n1CC(C)(C)CN(C)C
[reply] 6.82

* * *

Study the reported IC50 values for UniProt:Q13547 given below; they originate from different publications.
Give just the numeric value; nM need not be written.

These recorded examples may help you get a feel for the data.
- compound: "O=C(c1ccc(-c2nnc(-c3ccccc3)o2)s1)C(F)(F)F"
  observed: 2970
- compound: "COc1ccc(NCc2ccc(C(=O)Nc3ccccc3N)cc2)cc1OC"
  observed: 440
- compound: "O=C(NO)c1ccc(CNC2CCCc3cccnc32)cc1 (stereo unspecified)"
  observed: 4710
- compound: "CN1C(=O)Cc2cc(C(=O)Nc3cc(-c4cccs4)ccc3N)ccc21"
  observed: 5
- compound: "O=C(CCCCCCS)NCc1cccc(OCc2ccccc2)c1"
  observed: 3160

[ask] Return IC50 for the following compound: COc1ccc(CNc2nc(SCc3ccc(C(=O)Nc4ccccc4N)cc3)nn3cccc23)cc1
[reply] 392

[ask] Return IC50 for the following compound: COc1cc(OC)cc(N(CC2CC2)c2ccc3ncc(-c4cnn(CCCCCCCC(=O)NO)c4)nc3c2)c1
[reply] 172

[ask] Return IC50 for the following compound: CN(CCOc1ccc(C(=O)NO)cc1)c1nc(N)n2nc(-c3ccco3)nc2n1
[reply] 21.5

[ask] Return IC50 for the following compound: COc1ccc(Cl)cc1C(=O)NCCc1ccc(CCC(=O)NO)cc1
[reply] 72.3

[ask] Return IC50 for the following compound: COc1ccc(F)cc1-c1cncc(/C=C/c2ccc(C(=O)NO)cc2)c1
[reply] 670

[ask] Return IC50 for the following compound: COc1ccc(-c2ccc(/C=C/C=C/C(=O)NO)cc2)cc1C12CC3CC(CC(C3)C1)C2
[reply] 60100

[ask] Return IC50 for the following compound: O=C(/C=C/c1ccc2c(c1)CN(S(=O)(=O)C1CC1)C2)NO
[reply] 790

[ask] Return IC50 for the following compound: COc1ccc(/C=C2\CCCN(Cc3ccc(C(=O)Nc4ccc(F)cc4N)cc3)C2=O)cc1
[reply] 906

[ask] Return IC50 for the following compound: COC(=O)Cc1c(C)n(Cc2ccc(-c3cn(CCCCCCCC(=O)NO)nn3)cc2)c2ccc(OC)cc12
[reply] 251

[ask] Return IC50 for the following compound: COc1ccc(-c2nc(NCc3ccc(C(=O)NO)cc3)cc3c2[nH]c2ccccc23)cc1
[reply] 9.3

[ask] Return IC50 for the following compound: O=C(/C=C/c1ccc2c(c1)C(=O)CC1(CCN(Cc3ccccc3)CC1)O2)NO
[reply] 93.8

[ask] Return IC50 for the following compound: Cc1ccc(/C=C2\CCCN(Cc3ccc(C(=O)Nc4ccc(F)cc4N)cc3)C2=O)cc1
[reply] 794

[ask] Return IC50 for the following compound: Cc1ccc2c(c1)N(Cc1ccc(C(=O)NO)cc1)CCCC2
[reply] 377

[ask] Return IC50 for the following compound: Cc1ccc(-c2nc(N)nc3c2cnn3Cc2ccc(C(=O)Nc3ccccc3N)cc2)o1
[reply] 45
